# Test system: Septoria tritici
# test.name: Test C: preventive spray on wheat seedlings, Septoria tritici (wheat leaf blotch), visual disease rating
# Type: in vivo
# condition.description: values marked with asterisk (*), meaning not given
Marks after values point to notes of the source that are not given here.
readout.name: Test C disease control rating

Solved cases (3 shown):
Input O=C(Nc1ccccc1-c1cnc(-n2ccc(C(F)(F)F)n2)c(Cl)c1)c1cccs1 , output reported Test C disease control rating. 63* %

Respond only with Test C disease control rating recorded for Cc1oncc1C(=O)Nc1ccccc1-c1cnc(-n2ccc(C(F)(F)F)n2)c(Cl)c1 42* %

Respond only with Test C disease control rating recorded for Cn1ncnc1C(=O)Nc1ccccc1-c1cnc(-n2ccc(C(F)(F)F)n2)c(Cl)c1 88* %

Next:
Please supply the value of reported Test C disease control rating for the item O=C(Nc1ccccc1-c1cnc(-n2ccc(C(F)(F)F)n2)c(Cl)c1)c1ccsc1Br 98* %

Please report Test C disease control rating for the following compound: O=C(Nc1ccccc1-c1cnc(-n2ccc(C(F)(F)F)n2)c(Cl)c1)c1sccc1C(F)(F)F 100* %

Indicate the recorded Test C disease control rating value for this compound: O=C(Nc1ccccc1-c1cnc(-n2ccc(C(F)(F)F)n2)c(Cl)c1)c1occc1Br 99* %

Retrieve Test C disease control rating measured for Cc1ccn(-c2cnc(CCNC(=O)c3ncccc3C(F)(F)F)nc2)n1 and print it. 0* %

Read the entry O=C(NCCc1ncc(-n2ccc(Br)n2)cn1)c1ncccc1C(F)(F)F and write its reported Test C disease control rating. 5* %

====

# System: Puccinia recondite f. sp. tritici
# test.name: Test D: preventive spray on wheat seedlings, Puccinia recondite f. sp. tritici (wheat leaf rust), visual disease rating
# Format: in vivo
# condition.description: 100 = 100% disease control, 0 = no control, unmarked values
# Test D disease control rating per record follows
Dear colleague, please return just the value in %, with no unit written.

Reference set, count: 8
Assign Test D disease control rating to the following record: O=C(Nc1ccccc1-c1ccc(-n2cc(Br)cn2)nc1)c1ncccc1Cl 100

Give me measured Test D disease control rating, please, for this compound: O=C(Nc1ccccc1-c1ccc(-n2ccc(C(F)(F)F)n2)nc1)c1ncccc1C(F)(F)F 99

Identify measured Test D disease control rating associated with O=C(Nc1ccccc1-c1cnc(-n2ccc(-c3ccccc3)n2)c(F)c1)c1ccccc1C(F)(F)F 88

Supply recorded Test D disease control rating for Cn1cc(C(=O)Nc2ccccc2-c2ccc(-n3ccc(-c4ccc(F)cc4F)n3)nc2)c(C(F)F)n1 here. 100

// fetch Test D disease control rating given entry O=C(Nc1ccccc1-c1ccc(-n2ccc(-c3ccccc3)n2)nc1)c1ncccc1Cl 55

Annotate the compound O=C(Nc1ccccc1-c1cnc(-n2ccc(Br)n2)c(F)c1)c1ccccc1C(F)(F)F with its measured Test D disease control rating. 100

Specify measured Test D disease control rating for COc1ccccc1-c1ccn(-c2ccc(-c3ccccc3NC(=O)c3cn(C)nc3C(F)F)cn2)n1 . 100

Given the compound Cn1cc(C(=O)Nc2ccccc2-c2cnc(-n3ccc(C(F)(F)F)n3)c(F)c2)c(C(F)(F)F)n1 , write its reported Test D disease control rating. 100

Next:
Give Test D disease control rating for N#Cc1cnn(-c2ncc(-c3ccccc3NC(=O)c3ncccc3C(F)(F)F)cc2F)c1 99

Retrieve Test D disease control rating measured for O=C(Nc1ccccc1-c1ccc(-n2cc(-c3cc(F)cc(F)c3)cn2)nc1)c1ncccc1C(F)(F)F and print it. 99

Output measured Test D disease control rating for this item: O=C(Nc1ccccc1-c1ccc(-n2ccc(C(F)(F)F)n2)nc1)c1ncccc1Cl 96

Could you please provide reported Test D disease control rating for Cn1cc(C(=O)Nc2ccccc2-c2ccc(-n3ccc(-c4ccccc4F)n3)nc2)c(C(F)F)n1 ? Thanks! 100

Please report Test D disease control rating for the following compound: COc1cccc(C2CC(c3ccc(-c4ccccc4NC(=O)c4ncccc4C(F)(F)F)cn3)=NN2C)c1 (centres unmarked) 97

Identify measured Test D disease control rating associated with Cc1nc(C(F)(F)F)c(C(=O)Nc2ccccc2-c2ccc(-n3ccc(C(F)(F)F)n3)nc2)s1 100

Read off the recorded Test D disease control rating for CCOC(=O)C1(C)CC(c2ccc(-c3ccccc3NC(=O)c3cn(C)nc3C(F)F)cn2)=NO1 (centres unmarked) 74

Identify measured Test D disease control rating associated with O=C(Nc1ccccc1-c1cnc(-n2cc(Cl)cn2)c(F)c1)c1ccccc1C(F)(F)F 100

Give the reported value of Test D disease control rating for this record: Cc1cnn(-c2ccc(-c3ccccc3NC(=O)c3ccccc3C(F)(F)F)cn2)c1 [compound 43] 74

Dear colleague, please send me the reported Test D disease control rating for COc1cc(C(F)(F)F)nn1-c1ccc(-c2ccccc2NC(=O)c2ncccc2C(F)(F)F)cn1 when you can. 0

Assign Test D disease control rating to the following record: O=C(Nc1ccccc1-c1cnc(-n2ccc(C(F)(F)F)n2)c(F)c1)c1nccnc1Cl 99

====

# System: Puccinia recondite f. sp. tritici
# test.name: Test D: preventive spray on wheat seedlings, Puccinia recondite f. sp. tritici (wheat leaf rust), visual disease rating
# Format: in vivo
# condition.description: values marked with asterisk (*), meaning not given
Marks after values point to notes of the source that are not given here.
readout.name: Test D disease control rating

Answer with reported Test D disease control rating of O=C(Nc1ccccc1-c1cnc(-n2ccc(C(F)(F)F)n2)c(Cl)c1)c1sccc1C(F)(F)F [compound 167] 100* %

Look up and state reported Test D disease control rating for Cc1oncc1C(=O)Nc1ccccc1-c1cnc(-n2ccc(C(F)(F)F)n2)c(Cl)c1 [compound 128] 67* %

Name the recorded Test D disease control rating of the item O=C(Nc1ccccc1-c1cnc(-n2ccc(C(F)(F)F)n2)c(Cl)c1)c1sccc1Cl [compound 168] in your answer. 99* %

Note Test D disease control rating for the compound shown: Cc1ncsc1C(=O)Nc1ccccc1-c1cnc(-n2ccc(C(F)(F)F)n2)c(Cl)c1 [compound 164] 91* %

Please look at this compound and report its Test D disease control rating: CSc1ccsc1C(=O)Nc1ccccc1-c1cnc(-n2ccc(C(F)(F)F)n2)c(Cl)c1 [compound 141] 97* %

***
Note down Test D disease control rating recorded for O=C(Nc1ccccc1-c1cnc(-n2ccc(C(F)(F)F)n2)c(Cl)c1)c1ccsc1Cl [compound 120] 100* %

Report Test D disease control rating, nothing else, for this compound: Cc1scnc1C(=O)Nc1ccccc1-c1cnc(-n2ccc(C(F)(F)F)n2)c(Cl)c1 [compound 170] 0* %

Give the measured Test D disease control rating for CSc1sccc1C(=O)Nc1ccccc1-c1cnc(-n2ccc(C(F)(F)F)n2)c(Cl)c1 [compound 142] 97* %

Dear colleague, please send me the reported Test D disease control rating for O=C(Nc1ccccc1-c1cnc(-n2ccc(C(F)(F)F)n2)c(Cl)c1)c1ccsc1Br [compound 139] when you can. 100* %

Look up and state reported Test D disease control rating for Cn1ncnc1C(=O)Nc1ccccc1-c1cnc(-n2ccc(C(F)(F)F)n2)c(Cl)c1 [compound 129] 17* %

====

A collection of compounds and their measured Test D disease control rating
# System: Puccinia recondite f. sp. tritici
# test.name: Test D: preventive spray on wheat seedlings, Puccinia recondite f. sp. tritici (wheat leaf rust), visual disease rating
# Type: in vivo
# condition.description: values marked with asterisk (*), meaning not given
Marks after values point to notes of the source that are not given here.

In the examples that follow, each entry is paired with its recorded Test D disease control rating.
State its Test D disease control rating: Cc1ccn(-c2cnc(CCNC(=O)c3ncccc3C(F)(F)F)nc2)n1 0* %

Could you please provide reported Test D disease control rating for Cc1sccc1C(=O)Nc1ccccc1-c1cnc(-n2ccc(C(F)(F)F)n2)c(Cl)c1 ? Thanks! 100* %

Give Test D disease control rating for the following compound: Cc1cc(C)c(C(=O)Nc2ccccc2-c2cnc(-n3ccc(C(F)(F)F)n3)c(Cl)c2)s1 99* %

# ---- query compound ----
Please supply the value of reported Test D disease control rating for the item Cn1cc(C(=O)Nc2ccccc2-c2cnc(-n3cnc(C(F)(F)F)c3)c(F)c2)c(C(F)F)n1 99* %

====

# Tested on: Puccinia recondite f. sp. tritici
# test.name: Test D: preventive spray on wheat seedlings, Puccinia recondite f. sp. tritici (wheat leaf rust), visual disease rating
# Assay type: in vivo
# condition.description: 100 = 100% disease control, 0 = no control, unmarked values
readout.name: Test D disease control rating (%)
Just the number in %, nothing appended.

Consider the molecule CCOC(=O)C1CC(c2ccc(-c3ccccc3NC(=O)c3ncccc3C(F)(F)F)cn2)=NO1 (racemic) [compound 145] . State its measured Test D disease control rating. 0

Hello, please tell me recorded Test D disease control rating for this one: O=C(Nc1ccccc1-c1ccc(C2=NOC(c3cc(F)cc(F)c3)C2)nc1)c1ncccc1C(F)(F)F (racemic) [compound 19] 100

Report Test D disease control rating, nothing else, for this molecule: O=C(Nc1ccccc1-c1ccc(-n2ccc(Br)n2)nc1)c1ncccc1C(F)(F)F [compound 13] 100

Check the records and state Test D disease control rating for O=C(Nc1ccccc1-c1cnc(-n2cc(Cl)cn2)c(Cl)c1)c1ccccc1C(F)(F)F [compound 60] 100

Using the record for Cn1cc(C(=O)Nc2ccccc2-c2ccc(-n3cc(Br)cn3)nc2)c(C(F)F)n1 [compound 31] , state its measured Test D disease control rating. 100

Annotate the molecule Cn1cc(C(=O)Nc2ccccc2-c2ccc(-n3cccn3)nc2)c(C(F)F)n1 [compound 15] with its measured Test D disease control rating. 100

In one line, give reported Test D disease control rating of the entry Cc1nc(C(F)(F)F)c(C(=O)Nc2ccccc2-c2cnc(-n3ccc(C(F)(F)F)n3)c(C#N)c2)s1 [compound 107] . 99

Return value of Test D disease control rating for input Cn1cc(C(=O)Nc2ccccc2-c2cnc(-n3ccc(Br)n3)c(F)c2)c(C(F)F)n1 [compound 75] , no commentary. 100

Look up and state reported Test D disease control rating for O=C(Nc1ccccc1-c1cnc(-n2ccc(C(F)(F)F)n2)c(Cl)c1)c1nccnc1Cl [compound 96] 99

Identify Test D disease control rating associated with the molecule O=C(Nc1ccccc1-c1ccc(-n2cc(-c3ccccc3F)cn2)nc1)c1ncccc1C(F)(F)F [compound 29] 89

Next up:
Specify Test D disease control rating for Cn1cc(C(=O)Nc2ccccc2-c2cnc(-n3ccc(C(F)(F)F)n3)c(Cl)c2)c(C(F)(F)F)n1 [compound 97] and stop. 100
